- Test system: T24 cells
- test-details: CCK-8 anti-proliferative assay, T24
- Format: cell-based, human
- measurement-context: Homo sapiens, T-24; Table 16; comparative compounds 8-1 to 8-23; co-incubated 48 h; read-out: Anti-proliferative activity (IC50 ± standard deviation) T24
pIC50: −log10 of the molar value.
parameter: pIC50

molecule	observed-result
COc1cc2ncnc(NCc3cccc(NC(=O)Nc4ccc(C)cc4C)c3)c2cc1OCCCC(=O)N1CCC(N2CCOCC2)CC1 [Compound 8-4, reference compound]	4.57
CCc1ccccc1NC(=O)Nc1cccc(CNc2ncnc3cc(OC)c(OCCCC(=O)N4CCC(N5CCOCC5)CC4)cc23)c1 [Compound 8-6, reference compound]	4.71
COc1cc2ncnc(NCc3cccc(NC(=O)Nc4ccc(C(F)(F)F)cc4)c3)c2cc1OCCCC(=O)N1CCC(N2CCOCC2)CC1 [Compound 8-18, reference compound]	4.71
COc1cc2ncnc(NCc3cccc(NC(=O)Nc4ccc(F)cc4)c3)c2cc1OCCCC(=O)N1CCC(N2CCOCC2)CC1 [Compound 8-13, reference compound]	4.71

====

Item-by-item account of IC50
- Tested on: Hep G2 cells
- test-details: CCK-8 anti-proliferative assay, Hep G2
- Assay type: cell-based, human
- measurement-context: Homo sapiens, HepG2; Table 8; co-incubated 48 h; read-out: Anti-proliferative activity (IC50 ± standard deviation) Hep G2
Could you give me the number in µM? Just the number is fine.

Known IC50 results, listed for orientation:
compound	IC50 (µM)
CCc1cccc(CC)c1NC(=O)Nc1cccc(CNc2ncnc3cc(OC)c(OCCCCCCN4CCN(CCN5CCOCC5)CC4)cc23)c1 [Compound 8-1h]	4.67
COc1cc2ncnc(NCc3cccc(NC(=O)Nc4ccccc4Cl)c3)c2cc1OCCCCCCN1CCN(CCN2CCOCC2)CC1 [Compound 8-1m]	7.83

As a next step, examine the compound that follows.
Any idea what its IC50 is? The compound is COc1cc2ncnc(NCc3cccc(NC(=O)Nc4cccc(C)c4)c3)c2cc1OCCCCCCN1CCN(CCN2CCOCC2)CC1 [Compound 8-1c]
7.27

====

- Tested on: 5637 cells
- test-details: CCK-8 anti-proliferative assay, 5637
- Format: cell-based, human
- measurement-context: Homo sapiens; Table 10; co-incubated 48 h; read-out: Anti-proliferative activity (IC50 ± standard deviation) 5637
parameter: pIC50
Answer as the number alone; pIC50 is minus log10 of concentration in mol/L.

COc1cc2ncnc(NCc3cccc(NC(=O)NCc4ccccc4)c3)c2cc1OCCCCCCN1CCC(CN2CCN(c3ccccn3)CC2)CC1 5.31
COc1cc2ncnc(NCc3cccc(NC(=O)Nc4ccc(C(C)C)cc4)c3)c2cc1OCCCCCCN1CCC(CN2CCN(c3ccccn3)CC2)CC1 5.37
COc1cc2ncnc(NCc3cccc(NC(=O)Nc4ccccc4C)c3)c2cc1OCCCCCCN1CCC(CN2CCN(c3ccccn3)CC2)CC1 5.32
COc1cc2ncnc(NCc3cccc(NC(=O)Nc4ccccc4)c3)c2cc1OCCCCCCN1CCC(CN2CCN(c3ccccn3)CC2)CC1 4.79

As a next step, examine the compound that follows.
Any idea what its pIC50 is? The compound is COc1cc2ncnc(NCc3cccc(NC(=O)NC4CCCCC4)c3)c2cc1OCCCCCCN1CCC(CN2CCN(c3ccccn3)CC2)CC1
5.40
